// provenance: the Human Domainome abundance scans (Beltran et al. 2025)

B1: Homeobox protein SIX6, residues 134 to 184; numbered along this chain, O95475 (parent)
chain: CFKERTRHLLREWYLQDPYPNPSKKRELAQATGLTPTQVGNWFKNRRQRDR

Variants of: B1
Experiment: abundance fitness (aPCA) (normalised: wild type 0, dead -1); higher = more abundant; growth selection in yeast, the domain comes from the species named
Conditions: Homo sapiens
experimental_readout: abundance fitness
One number for each entry.

CFKERTRHLLREWYLQDPYPNPSKKRELAQATGLTPTQVLNWFKNRRQRDR [G40L] | -0.615

Respectfully, I request abundance fitness for each entry included below.
1. CFKERTRHLLREWYLQDPYPNPSKKRELAQATGLTRTQVGNWFKNRRQRDR [P36R]
2. CFKERTRHLLREWYLQDPYPNPSKKRELAQATGLTPTQVVNWFKNRRQRDR [G40V]
3. CFKERTRHLLREWYLQDPYPNPSKKRELAQATGLTPTQRGNWFKNRRQRDR [V39R]
4. CFKERTRHLLREWYLQDPYPNPSKKRELAQATNLTPTQVGNWFKNRRQRDR [G33N]
5. CFKERTRHLLREWYLQDPYPNPSKKRELAQATGLSPTQVGNWFKNRRQRDR [T35S]
6. CFKERTRHLLREWYLQDPYPNPSKKRELAQATGLTPTQVGNWFKNRRQVDR [R49V]
7. CFKERTRHLLREWYLQDPYPNPSKKRELAQAWGLTPTQVGNWFKNRRQRDR [T32W]
8. CFKERTRHLLREWYLQDPYPNPSKKRELDQATGLTPTQVGNWFKNRRQRDR [A29D]

a:
1. -0.603
2. -0.605
3. -0.882
4. -0.499
5. -0.128
6. -0.503
7. -0.873
8. -0.504

Respectfully, I request abundance fitness for each entry included below.
1. CFKERTRHLLREWYLQDPYPNPSKKRELAQATGLYPTQVGNWFKNRRQRDR [T35Y]
2. CFKERTRHLLREWYLQDPYCNPSKKRELAQATGLTPTQVGNWFKNRRQRDR [P20C]
3. CFKERTRHLLREWYLQDTYPNPSKKRELAQATGLTPTQVGNWFKNRRQRDR [P18T]
4. CFKERTRHLLREWYLQDPYPNPSKKRELAQATGLTPTQVGNWFKNRRQRDT [R51T]

a:
1. -0.953
2. -0.7
3. -0.915
4. -0.529

Respectfully, I request abundance fitness for each entry included below.
1. CFKERTRHLLREWYLQDPYPNPSKKRELAQATGCTPTQVGNWFKNRRQRDR [L34C]
2. CFKERTRHLLREWYLQDPYPNPSKKRELAQATGLTPTQVGNWFKNRRIRDR [Q48I]
3. CFKERTRHLLREWYLQDPYPNPSKKRELAQATGLTPTQVGYWFKNRRQRDR [N41Y]
4. CFKERTRHLLREWYLQDPYPNPSKKRELAEATGLTPTQVGNWFKNRRQRDR [Q30E]
5. CFKERTRHLLREWYLQDPYPNPSKKRELAQATGLTPTCVGNWFKNRRQRDR [Q38C]

a:
1. -0.806
2. -0.035
3. -0.995
4. -0.193
5. -0.798

Respectfully, I request abundance fitness for each entry included below.
1. CFKERTRHLLREWYLQDPYPNPSKKRELAQATGLTPTQVGNWFKNRNQRDR [R47N]
2. CFKERTRHLLREWYLQDPYPNPSKKRELAQATGLTPTQVGNWFKIRRQRDR [N45I]
3. CFKERTRHLLREWYLQDPYPNPQKKRELAQATGLTPTQVGNWFKNRRQRDR [S23Q]
4. CFKERTRHLLREWYLQDPYPNPSKKRELAQCTGLTPTQVGNWFKNRRQRDR [A31C]
5. CFKERTRHLLREWYLQDPYPNPSKKRELAQAKGLTPTQVGNWFKNRRQRDR [T32K]

a:
1: -0.613; 2: -0.394; 3: -0.028; 4: -0.287; 5: -0.932
